Tested on: NIH3T3
Assay: qHTS assay to identify novel small-molecules to repurpose for Merkel cell carcinoma treatment (AID 1296009); note: nearly all actives have a fitted effect of over 60% in size
Conditions: MCC and control cell lines, CellTiter-Glo viability, 72 h; at 44.8 µM (top of the series) unless noted
Text: MCC is a rare and aggressive neuroendocrine skin cancer with limited treatment options. Approximately 80% of MCCs have the Merkel cell polyomavirus (MCPyV) DNA integrated into the host genome (virus-positive: VP-MCC) and viral oncogenes drive oncogenesis. The remaining MCCs are virus-negative (VN-MCC) and are caused by UV mutagenesis. […] Using cell viability as a readout (CellTiter-Glo assay) we found both overlapping and distinct drugs that can be repurposed for the treatment of VP-MCC and VN-MCC. […]
Results filed as inconclusive are left out. Calls of active or inactive are those of the source. Calls come from the whole dose curve; as a rule, active = well fitted inhibition curve with a large enough effect; inconclusive = small, poorly fitted or top-dose-only effect; inactive = flat fitted curve, though single readings scatter.
MEASURED PARAMETER: outcome

INSERT INTO results (smiles_input, measured_parameter, result) VALUES
  ('COc1cc(CO)cc(OC)c1O[C@@H]1O[C@H](CO)[C@@H](O)[C@H](O)[C@H]1O', 'outcome', 'inactive'),
  ('Nc1ncnc2c1c(COc1cccc(Cl)c1)nn2C1CCOCC1', 'outcome', 'inactive');

---

Test system: HACAT
Assay: qHTS assay to identify novel small-molecules to repurpose for Merkel cell carcinoma treatment (AID 1296009); note: nearly all actives have a fitted effect of over 60% in size
Settings: MCC and control cell lines, CellTiter-Glo viability, 72 h; at 44.8 µM (top of the series) unless noted
Records with an inconclusive call do not appear. Activity calls are given as the source filed them. Calls follow the shape of the dose curve; as a rule, active = well fitted inhibition curve with a large enough effect; inconclusive = small, poorly fitted or top-dose-only effect; inactive = flat fitted curve, though single readings scatter.
MEASURED PARAMETER: outcome

Some compounds with recorded outcome:
INSERT INTO measurements (compound, measured_parameter, result) VALUES
  ('CC(C)=CCC/C(C)=C/CO[C@@H]1O[C@H](CO[C@@H]2OC[C@](O)(CO)[C@H]2O)[C@@H](O)[C@H](O)[C@H]1O', 'outcome', 'inactive [at 17.4 µM]'),
  ('CCC(C)C(N)C(=O)NCCN1CCOCC1 (stereo not given)', 'outcome', 'inactive'),
  ('C=C(C)C1CCC2(C(=O)OC3OC(COC4OC(CO)C(O)C(O)C4O)C(OC4OC(C)C(O)C(O)C4O)C(O)C3O)CCC3(C(=O)O)C(CCC4C5(C)CCC(=O)C(C)(C)C5CCC43C)C12 (stereo not given)', 'outcome', 'inactive [at 9.27 µM]'),
  ('C=C1CC2C3(C)C(O)CC(=O)C(C)(C)C3C(O)C(OC(C)=O)C2(C)C2C(=O)OC(C)(C(=O)OC)C(=O)C12C (stereo not given)', 'outcome', 'inactive [at 17.4 µM]'),
  ('COC(=O)Cn1nc(-c2cccc(OC)c2)c2ccccc21', 'outcome', 'inactive');

So what does the record say about outcome for `C=C(CCO[C@@H]1O[C@H](CO)[C@@H](O)[C@H](O)[C@H]1O)C(=O)O` ?
inactive

So what does the record say about outcome for CC1=CC2=C(C)C(=O)C(C)(O)C(O)C2CO1 (stereo not given) ?
inactive

So what does the record say about outcome for O=C(O)CC1CCC(c2ccc(NC(=O)c3nnc(Nc4ccc(F)c(F)c4)o3)cc2)CC1 (stereo not given) ?
inactive

So what does the record say about outcome for `O=C(NC1CCN(CC(F)(F)F)CC1)c1ccc(-c2cccc(F)c2)nc1` ?
inactive

So what does the record say about outcome for C=C1CCC2C(C)(C)CC(=O)CC2(C)C1CCC(C)CCO (stereo not given) ?
inactive

So what does the record say about outcome for `COc1ccc(-n2[nH]c3c(cnc4ccccc43)c2=O)cc1` ?
inactive

So what does the record say about outcome for CC1OC(OC2CCC3(C)C(CCC4(C)C3C=CC35OCC6(CCC(C)(C)CC63)CCC45C)C2(C)CO)C(OC2OC(CO)C(O)C(O)C2O)C(O)C1OC1OC(CO)C(O)C(O)C1O (stereo not given) ?
inactive [at 9.27 µM]

So what does the record say about outcome for `Fc1ccccc1-c1nc2ccn(Cc3ccc(-c4ccc(C(F)(F)F)cc4C(F)(F)F)nn3)cc-2n1` ?
inactive

So what does the record say about outcome for CC1=C2CC(C)(C)CC2C(O)C2=C(C1)C(=O)OC2O (stereo not given) ?
inactive

So what does the record say about outcome for `O=C(/C=C/c1ccc(O)cc1)OC[C@H]1O[C@@H](O/C(=C\c2ccccc2)C(=O)O)[C@H](O)[C@@H](O)[C@@H]1O` ?
inactive [at 17.4 µM]
